Protocol Summary: Agonist activity at vitamin D3 receptor in human HL-60 cells assessed as induction of cell differentiation after 96 hrs by NBT dye-based microscopic analysis
pEC50: −log10 of the molar value.
Property: pEC50; scope: individual molecules
Quantity: pEC50

CCn1c(C(=O)Nc2ccc(OC(F)(F)F)cc2)ccc1C(CC)(CC)c1ccc(OCC(=O)C(C)(C)C)c(C)c1: < 4.30
CCn1c(C(=O)Nc2cccc(C(F)(F)F)c2)ccc1C(CC)(CC)c1ccc(OCC(O)C(C)(C)C)c(C)c1 (stereo not given): < 4.30
CCn1c(C(=O)OCc2ccccn2)ccc1C(CC)(CC)c1ccc(OCC(O)C(C)(C)C)c(C)c1 (stereo not given): < 4.30
CCn1c(C(=O)OCc2ccccn2)ccc1C(CC)(CC)c1ccc(OCC(=O)C(C)(C)C)c(C)c1: < 4.30
CCOC(=O)CN(C)C(=O)c1ccc(C(CC)(CC)c2ccc(OCC(=O)C(C)(C)C)c(C)c2)n1CC: < 4.30
